target-entity: Glucose-induced degradation protein 4 homolog (Homo sapiens)
experiment-notes: Inhibition of GID4 (124 to 289) (unknown origin) expressed in Escherichia coli BL21(DE3) using PGLWKS-FITC peptide by competitive-fluorescence polarization binding assay

| compound | IC50 (µM) |
| --- | --- |
| CC1CN=C(Nc2cccc(F)c2)S1 (stereo unspecified) | 264 |

---

target-entity: Glucose-induced degradation protein 4 homolog (Homo sapiens) (UniProt Q8IVV7)
Sequence (Q8IVV7 whole entry): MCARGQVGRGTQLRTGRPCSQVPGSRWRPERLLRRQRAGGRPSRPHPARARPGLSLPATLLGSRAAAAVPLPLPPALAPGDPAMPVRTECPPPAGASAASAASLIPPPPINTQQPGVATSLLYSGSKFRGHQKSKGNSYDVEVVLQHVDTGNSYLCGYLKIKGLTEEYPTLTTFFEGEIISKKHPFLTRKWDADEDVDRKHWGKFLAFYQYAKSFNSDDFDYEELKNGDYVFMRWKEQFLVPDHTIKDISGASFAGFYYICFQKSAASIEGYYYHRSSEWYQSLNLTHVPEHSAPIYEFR
Kindly apply the following: true if ΔTm is less than 4 °C, false in every other case.

| compound | class |
| --- | --- |
| OCc1ccc(C2NCCc3sccc32)cc1 (stereo unspecified) | false |
| CC(=O)c1ccc(NC2=NCC(C)S2)cc1 (stereo unspecified) | true |
| c1ccc(NC2=NCCS2)cc1 | true |
| CC1SC(Nc2ccc(F)cc2)=NC1=O (stereo unspecified) | true |
| O=[N+]([O-])c1cccc(C2NCCc3sccc32)c1 (stereo unspecified) | false |
| COc1ccc2c(c1)CCCC2c1ccccc1 (stereo unspecified) | false |
| FC(F)(F)c1ccc(C2NCCc3sccc32)cc1 (stereo unspecified) | true |
| Nc1ccc(C2NCCc3sccc32)cc1 (stereo unspecified) | false |
| CNC(=O)[C@H](CC1CCCCC1)NC(=O)[C@@H](NC(=O)[C@H]1NC[C@@H]1c1ccccc1)c1ccsc1 | false |

---

target-entity: Glucose-induced degradation protein 4 homolog (Homo sapiens)
Binary call on ΔTm with cut-off 3 °C: strictly below means y, and equality or higher means n.

| compound | class |
| --- | --- |
| FC(F)(F)c1ccccc1C1NCCc2sccc21 (centres undefined) | n |
| CCOc1ccc(NC2=NCC(C)S2)cc1 (centres undefined) | y |
| COc1cccc(C2NCCc3sccc32)c1 (centres undefined) | n |
| CC1CN=C(Nc2ccc(N(C)C)cc2)S1 (centres undefined) | n |
| Oc1cccc(C2NCCc3sccc32)c1 (centres undefined) | n |
| Clc1ccc(C2NCCc3sccc32)cc1 (centres undefined) | n |
| COc1ccc(C2NCCc3sccc32)cc1 (racemic) | n |
| Fc1ccc(C2NCCc3sccc32)cc1 (centres undefined) | n |
| Nc1ccccc1C1NCCc2sccc21 (centres undefined) | y |
| c1ccc(C2NCCc3sccc32)cc1 (centres undefined) | n |
| CC1CN=C(Nc2ccc(F)cc2)S1 (racemic) | n |
| CNC(=O)[C@H](CCc1ccccc1)NC(=O)[C@H](NC(=O)CNCc1ccc(OC)cc1OC)c1cccs1 | n |
| CC1(C)CN=C(Nc2ccc(F)cc2)S1 | y |
| CC1CSC(Nc2cccc3ccccc23)=N1 (centres undefined) | y |
| N#Cc1ccc(C2NCCc3sccc32)cc1 (centres undefined) | y |
| Clc1ccccc1C1NCCc2sccc21 (centres undefined) | n |
| CC(=O)Oc1ccc(C2NCCc3sccc32)cc1 (centres undefined) | n |
| c1cncc(C2NCCc3sccc32)c1 (centres undefined) | y |
| Brc1ccc(C2NCCc3sccc32)cc1 (centres undefined) | n |
| COc1ccc(NC2=NCC(C)S2)cc1 (centres undefined) | n |
| N#Cc1cccc(C2NCCc3sccc32)c1 (centres undefined) | n |
| CNC(=O)C1c2ccccc2CN1C(=O)[C@@H](Cc1c(C)[nH]c2ccccc12)NC(=O)CNCCOc1ccc(C)cc1 (some centres undefined) | y |
| CC(=O)c1cccc(NC2=NCC(C)S2)c1 (centres undefined) | n |
| COc1cccc2c1CCNC2c1ccccc1 (centres undefined) | n |
| c1cc2c(s1)CCNC2 | y |
| CC1CN=C(Nc2ccc(F)cc2F)S1 (centres undefined) | y |

Value source: ChEMBL document CHEMBL5104179
